# targetOrTestSystem: Transient receptor potential cation channel subfamily V member 3 (Homo sapiens, UniProt Q8NET8)
# Sequence (Q8NET8 whole entry): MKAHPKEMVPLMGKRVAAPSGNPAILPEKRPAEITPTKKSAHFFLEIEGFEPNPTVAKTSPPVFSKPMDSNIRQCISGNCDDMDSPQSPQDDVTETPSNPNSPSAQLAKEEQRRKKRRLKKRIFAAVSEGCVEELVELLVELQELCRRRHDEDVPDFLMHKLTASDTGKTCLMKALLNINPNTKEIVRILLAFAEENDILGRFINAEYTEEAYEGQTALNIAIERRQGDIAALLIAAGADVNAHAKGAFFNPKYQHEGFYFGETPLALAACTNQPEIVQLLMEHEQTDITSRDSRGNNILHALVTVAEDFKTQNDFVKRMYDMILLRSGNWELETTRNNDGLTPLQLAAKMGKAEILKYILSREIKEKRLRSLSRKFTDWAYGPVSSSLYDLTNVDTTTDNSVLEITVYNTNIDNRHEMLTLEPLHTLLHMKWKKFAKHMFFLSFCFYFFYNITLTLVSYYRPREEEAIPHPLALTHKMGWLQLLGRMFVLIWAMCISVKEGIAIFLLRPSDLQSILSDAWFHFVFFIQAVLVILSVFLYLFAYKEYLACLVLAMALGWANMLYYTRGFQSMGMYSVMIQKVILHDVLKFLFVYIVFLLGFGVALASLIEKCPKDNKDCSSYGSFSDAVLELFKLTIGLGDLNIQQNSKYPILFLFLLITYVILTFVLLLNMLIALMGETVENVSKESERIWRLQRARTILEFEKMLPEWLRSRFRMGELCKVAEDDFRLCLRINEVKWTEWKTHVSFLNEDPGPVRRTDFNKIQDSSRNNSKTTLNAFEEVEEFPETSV
# assayComment: Antagonist activity at human TRPV3 receptor
measuredEndpoint: IC50

input: Fill in the blank: the reported IC50 of Cc1nc(Nc2cccc3c2C[C@H](O)CC3)oc1-c1ccc(C(F)(F)F)cc1 is ____.
output: > 100 µM

---

# targetOrTestSystem: Transient receptor potential cation channel subfamily V member 1 (Homo sapiens)
# Sequence (Q8NER1 whole entry): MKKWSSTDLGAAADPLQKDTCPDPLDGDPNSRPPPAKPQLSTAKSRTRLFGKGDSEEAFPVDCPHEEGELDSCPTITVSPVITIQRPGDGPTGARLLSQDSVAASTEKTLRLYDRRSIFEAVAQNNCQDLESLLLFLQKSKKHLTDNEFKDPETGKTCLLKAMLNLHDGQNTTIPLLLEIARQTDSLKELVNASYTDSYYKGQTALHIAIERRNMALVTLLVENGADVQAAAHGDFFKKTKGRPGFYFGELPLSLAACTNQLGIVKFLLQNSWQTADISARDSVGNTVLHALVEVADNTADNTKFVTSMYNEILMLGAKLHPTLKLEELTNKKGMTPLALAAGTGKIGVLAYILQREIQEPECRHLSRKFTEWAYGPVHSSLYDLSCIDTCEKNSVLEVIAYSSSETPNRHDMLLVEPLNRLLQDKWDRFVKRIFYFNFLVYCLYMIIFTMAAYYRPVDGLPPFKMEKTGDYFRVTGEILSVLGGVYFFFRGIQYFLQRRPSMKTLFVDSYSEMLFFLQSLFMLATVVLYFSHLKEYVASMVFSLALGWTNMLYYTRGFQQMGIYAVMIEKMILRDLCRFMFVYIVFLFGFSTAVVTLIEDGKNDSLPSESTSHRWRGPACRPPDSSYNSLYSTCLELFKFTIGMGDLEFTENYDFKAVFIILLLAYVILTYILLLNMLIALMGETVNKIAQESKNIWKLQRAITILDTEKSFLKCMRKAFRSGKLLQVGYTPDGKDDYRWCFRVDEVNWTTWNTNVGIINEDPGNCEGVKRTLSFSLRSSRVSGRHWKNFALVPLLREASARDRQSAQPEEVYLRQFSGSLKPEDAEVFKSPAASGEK
# assayComment: Antagonist activity at human recombinant TRPV1 receptor expressed in human 1321 cells assessed as inhibition of capsaicin-induced in intracellular calcium levels by FLIPR assay
pIC50: −log10 of the molar value.
Decide using pIC50: a value greater than or equal to 7 is True, a smaller one is False.

The examples below pair each entry with its known result.
INSERT INTO assay_data (molecule, assignedcategory) VALUES
  ('CN(c1ncc(-c2ccc(C(F)(F)F)cc2)o1)c1cccc2c1CC(O)CC2 (stereo not drawn)', 'False'),
  ('OC1CCc2cccc(Nc3ncc(Cc4ccccc4)o3)c2C1 (stereo not drawn)', 'False'),
  ('Oc1ccc2cccc(Nc3ncc(-c4ccc(C(F)(F)F)cc4)o3)c2c1', 'True'),
  ('OC1CCc2cccc(Nc3ncc(-c4ccc(C(F)(F)F)cc4)o3)c2C1 (stereo not drawn)', 'True'),
  ('CC1(O)CCc2cccc(Nc3ncc(-c4ccc(C(F)(F)F)cc4)o3)c2C1 (stereo not drawn)', 'False');

Turning now to a further record.
input: Could you tell me if the measured pIC50 of NC1CCc2cccc(Nc3ncc(-c4ccc(C(F)(F)F)cc4)o3)c2C1 (stereo not drawn) reaches 7 or more?
output: False
